Assay: inhibitors of HIV-1 Env-driven cell-cell fusion, primary screen, HeLa-JRFL effector, CEM21 target cells, luciferase (AID 651610);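 also: 0% = plate neutral controls and 100% = maraviroc near 300 nM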
Details: at 16.7 µM unless noted
The whole screen tested about 360,000 compounds, of which about 3,900 (1.1%) were called active.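 The calls were made as follows: active = mean replicate inhibition score of at least 50 and every replicate individually at or above 50; inconclusive = only one of the two criteria met; inactive = mean below 50 and not all replicates reaching 50.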 Many of the other results were omitted from the sample, so actives are more common in it than they were.
Lab note: assign the record to one of 1 (yes) (active), 0 (no) (inactive)

Q: Check the results log: what was the call for C[C@H](CO)N1C[C@H](C)[C@@H](CN(C)CC2CC2)Oc2ccc(NC(=O)Nc3ccccc3)cc2CC1=O ?
A: 0 (no)

Q: Would you mind telling me which call this test gave COC(=O)[C@]12C[C@H](CC(=O)NCc3ccc(C)o3)C(=O)N(CCC3=CCCCC3)C1=C[C@H](C(C)(C)C)O[C@@H]2C ?
A: 1 (yes)

Q: Which result was noted for this compound in the test: C[C@@H]1CN([C@H](C)CO)C(=O)c2cc(NC(=O)Nc3cccc4ccccc34)ccc2O[C@@H](C)CCCCO[C@H]1CN(C)S(=O)(=O)c1cccs1
A: 0 (no)

Q: I'd appreciate the recorded outcome for C[C@@H]1CCCCO[C@@H](CN(C)C(=O)CCC(F)(F)F)[C@H](C)CN([C@@H](C)CO)C(=O)c2cc(NC(=O)CCCN(C)C)ccc2O1 from this test.
A: 0 (no)
